Kindly supply the reported pIC50 values for the records listed here.
target-or-test-system: human orexin-1 receptor (Homo sapiens (Human))
Sequence (O43613 whole entry): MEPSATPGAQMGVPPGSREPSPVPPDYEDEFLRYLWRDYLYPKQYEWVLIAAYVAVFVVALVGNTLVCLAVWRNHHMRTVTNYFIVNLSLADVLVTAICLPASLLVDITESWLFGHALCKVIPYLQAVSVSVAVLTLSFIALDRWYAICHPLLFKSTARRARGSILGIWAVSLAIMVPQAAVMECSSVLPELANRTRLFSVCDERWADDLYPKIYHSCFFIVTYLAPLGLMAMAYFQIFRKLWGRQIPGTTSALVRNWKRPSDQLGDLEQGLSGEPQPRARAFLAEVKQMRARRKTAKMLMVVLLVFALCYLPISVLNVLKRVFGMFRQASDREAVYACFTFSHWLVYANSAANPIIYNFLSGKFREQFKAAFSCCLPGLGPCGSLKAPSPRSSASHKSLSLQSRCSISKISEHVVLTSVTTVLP
measurement-protocol: In vitro assay: intracellular calcium measurements (FLIPR), antagonistic activity
assay-context: CHO cells expressing human orexin-1 receptor, orexin-A agonist, geometric mean, read-out: IC50 Ox1
Answers are plain numbers, as −log10 of the molar value.

Recorded pIC50, per entry:
| compound | target-or-test-system | pIC50 |
| --- | --- | --- |
| COc1cc2nc([C@]3(C)CCCN3C(=O)c3c(-n4nccn4)ccc(OC)c3F)[nH]c2cc1OC | human orexin-1 receptor (Homo sapiens (Human)) | 6.38 |
| Cc1ccc(-c2ccccc2)c(C(=O)N2CCC[C@@]2(C)c2nc3cc(OC(F)(F)F)ccc3[nH]2)c1 | human orexin-1 receptor (Homo sapiens (Human)) | 7.59 |

For the 7 compounds below, give their pIC50 values.
1. COc1cccc(-c2nc(C)ncc2C(=O)N2CCC[C@H]2c2nc3cccc(SC)c3[nH]2)c1
2. CO[C@H]1CN(C(=O)c2nc(C)ccc2-n2nccn2)C(C)(c2nc3c(C)c(Cl)ccc3[nH]2)C1 (some centres unmarked)
3. Cc1nc(C(=O)N2CCCC2c2nc3cc(F)c(Br)cc3[nH]2)c(-c2cccc(Cl)c2)s1 (centres unmarked)
4. Cc1nc(C(=O)N2CC[C@H](C)[C@H]2c2nc3cccc(Cl)c3[nH]2)c(-c2cccc(Cl)c2)s1
5. CSc1ccc2nc([C@@H]3CCCN3C(=O)c3ccccc3-c3ccc(C)c(C)c3)[nH]c2c1
6. C=C1C[C@@H](c2nc3cc(OC)ccc3[nH]2)N(C(=O)c2nc(C3CC3)sc2-c2ccccc2)C1
7. CSc1cccc2nc([C@@H]3CCCN3C(=O)c3nc(C)sc3-c3ccc(F)c(F)c3)[nH]c12

**A:**
[7.25, 7.74, 7.16, 8.22, 6.89, 6.69, 6.90]

For the 5 compounds below, give their pIC50 values.
1. Cc1ccc(-c2cccc(C#N)c2)c(C(=O)N2CCC[C@@]2(C)c2nc3cc(C(F)(F)F)ccc3[nH]2)c1
2. COc1cccc(-c2sc(C)nc2C(=O)N2CCC[C@H]2c2nc3ccc(SC)cc3[nH]2)c1
3. CSc1cccc2nc([C@@H]3CCCN3C(=O)c3nc(C4CC4)sc3-c3ccc(C)cc3)[nH]c12
4. Cc1ccc(-c2ncccn2)c(C(=O)N2CCC[C@@]2(C)c2nc3ccc(F)c(F)c3[nH]2)c1
5. COc1ccc(-n2nccn2)c(C(=O)N2CCC[C@H]2c2nc3ccc(SC)cc3[nH]2)c1

**A:**
1: 7.24; 2: 6.81; 3: 8.15; 4: 7.06; 5: 6.52

For the 6 compounds below, give their pIC50 values.
1. C=C1C[C@@H](c2nc3cc(C)c(C)cc3[nH]2)N(C(=O)c2c(C)cccc2-n2nccn2)C1
2. Cc1ccc(-c2ncccn2)c(C(=O)N2CC[C@H](C)[C@H]2c2nc3cc(C)c(C)cc3[nH]2)c1
3. Cc1nc(C(=O)N2CCCC2c2nc3cc(C(F)(F)F)c(Cl)cc3[nH]2)c(-c2cccc(Cl)c2)s1 (centres unmarked)
4. C=C1C[C@@H](c2nc3cc(OC)ccc3[nH]2)N(C(=O)c2c(F)cccc2-n2nccn2)C1
5. C=C1C[C@@H](c2nc3cc(C(C)(C)C)ccc3[nH]2)N(C(=O)c2cc(OC(F)(F)F)ccc2-n2nccn2)C1
6. CO[C@H]1CN(C(=O)c2nc(C)sc2-c2ccccc2)C(C)(c2nc3c(C)c(Cl)ccc3[nH]2)C1 (some centres unmarked)

**A:**
6.84
7.03
8.30
5.82
6.46
8.30
